Attribution: patent US20250277045A1

Measured kon, listed per entry for reference.
Molecular target: T1, human BCMA-hFc kih monovalent recombinant protein (human, UniProt P0DOX5 223-449 = IgG part)
T1 construct: Knob-into-hole heterodimer with one BCMA arm, expressed in HEK293E; also called human BCMA-hFc recombinant protein
Experiment: SPR (Biacore T200), BCMA-hFc captured on Protein A chip, Fab as analyte, 1:1 Langmuir
From the text: Kinetic constants were fitted using Biacore T200 evaluation software with a Langmuir 1:1 kinetics model.

38E2 Fab (Fab, V domains shown, Murine BCMA Fab, Ni-NTA purified) VH: QVQLQQSGAELVRPGTSVKMSCKAAGYTFTNYWIGWVKQRPGHGLEWIGDIYPGSGDTNYNGKFKGKATLAADISSNAAYMQLSSLTSEDSAIYYCARSYYRNDAASFAYWGQGTLVTVSA VL: DIVMTQSHKFMSTSVGDRVNITCKASQDVDTAVAWYQQKPSQSPKLLIYWTSTRHTGVPDRFTGSGSGTDFTLTISNVQSEDLADYFCQQFSSYPLTFGAGTKLELK
98800 M⁻¹ s⁻¹

Exercise: Consider the binder 38F9 Fab (Fab, V domains shown, Murine BCMA Fab, Ni-NTA purified) VH: EIQLVQSGPELKKPGETVKISCKASGYIFTNFGMNWVRQAPGKALKWMGWINTYTGEQIYADDFKGRFAFSLETSASTAYLQINNLKNEDTATYFCARGEIYYGYDVGFVYWGQGTLVTVSA VL: NIVLTQSPASLAVSLGQRATISCRASESVDSSGNSFMHWYQQKPGQPPKLLIYLESNLESGVPARFSGSGSRTDFTLTIEPVEADDAATYYCQQSNEDPWTFGGGTKLEIK and give its measured kon.
Key: 5810 M⁻¹ s⁻¹

Exercise: And what about the binder 29A11 Fab (Fab, V domains shown, Murine BCMA Fab, Ni-NTA purified) VH: EIQLVQSGPELKKPGETVKISCKASGYIFTNFGMNWVRQAPGKALKWMGWINTYTGEQIYADDFKGRFAFSLETSASTAYLQINNLKNEDTATYFCARGEIYYGYDVGFVYWGQGTLVTVSA VL: DIVLTQSPASLAVSLGQRATISCRASKSVSTSGYSYMHWYQQKPGQPPKLLIYLASNLESGVPARFSGSGSGTDFTLNIHPVEEEDAATYYCQHSRELPWTFGGGTKLEIK ?
Key: 76400 M⁻¹ s⁻¹
